Cited source: the supplement of paper PMC9170038

# apparent KD of K4 kissing-loop reporter listing for each entry below
System: K4 kissing-loop RNA reporter;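 also: bound reporter read as fluorescence of individual clusters on recovered sequencing chips by microscopy, with normalized cluster intensities fitted with a binding model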
Assay: apparent KD of K4 kissing-loop reporter; higher = weaker reporter binding
Details: Eterna round: R107; input ligand: theophylline 20 uM
Value expressed in nM; do not type the unit.

A selection of reference data follows.
CCAGUGAUAAACGAUACCAGAAAUACCUUAUUUGGCCGGCGGAGUGAUGUUCCUAAUACUUUCCCUUGGCAGCGUCGAAUGCUAG [theeternabot_sameState_KL_Theo_B_16]	99
CUAUGGAAACAUAGUGAUCGGGAAACCGAUACCAGUAUGGAAACAUACCCUUGGCAGCGGAAUGAUCAAACGGAGUGAUGUUCCG [Theophylline A K4 21]	278
UGUCGGUGAAGAAUGUUAGUGAUGUUGGCACGAGGACCGGUACGGCCGCCACUCGGUAAUCAUCGCAAUUAUCGAUGGCGUAGCC [theeternabot_exclusion_KL_Trp_A_3]	166
UUGGUUGUCGUAGGAUAUGUAGGAUAUUCUAAAAUAUGAAGUGAUGUUUCUAUAAUAAGAAGAAGGACAGAAGGACGAUAACCAU [FmnBS 2 - Salish transfer #DoubleAptamer]	103

// below: apparent KD of K4 kissing-loop reporter requested for another sequence
Q: GET /values?readout=apparent KD of K4 kissing-loop reporter&item= UGUAUGGACUGAAGGAGCGCUAGGAAAGUGAGUGAUGUUCAUAUAAAAGUAUAAAGGGUUUGGCAGGUAGGUCGCAGUCCAUACU [KL-SSArg B5]
Ans: 270
